- EXPERIMENTAL DETAILS: BSK_4H_Eotaxin3: BioMAP Diversity Plus: 4H Assay for Eotaxin 3 Biomarker Activity (AID 2283000);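 for outcome: CCL26 protein level quantified by ELISA in parallel with SRB cytotoxicity check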
- CONDITION DESCRIPTION: primary human endothelial cells (HUVEC); actives raise or lower the signal
- Protocol: BSK_4H is a cell-based, multiplexed-readout assay that uses umbilical vein endothelium, a human vascular primary cell, with measurements taken at 24 hours after chemical dosing in a 96-well plate.BSK_4H_Eotaxin3 is an assay component measured in the BSK_4H assay. It measures Eotaxin-3 antibody related to regulation of gene expression using ELISA technology.Data from the assay component BSK_4H_Eotaxin3 was analyzed into 1 assay endpoint. […]
Activity calls are given as the source filed them. Rule for the calls: active = hit-call score of the fitted dose curve at least 0.9, where 1 is the maximum; inactive = score below 0.9.
Your reply should match one of these outcome classes. active, inactive

molecule=CC1=C(C(=O)Nc2ccccc2)SCCO1 class_name=inactive

Query: Hello, I am checking results. What call was entered for CCCCOC(=O)c1ccccc1C(=O)OCCCC ?
Reply: inactive

Query: Hello, I am checking results. What call was entered for Fc1ccc(Oc2ccnc3cc(Cl)cc(Cl)c23)cc1 ?
Reply: active

Query: Hello, I am checking results. What call was entered for COc1nc(C)nc(NC(=O)NS(=O)(=O)c2ccccc2Cl)n1 ?
Reply: inactive
